target: Tyrosine-protein kinase Fer (Homo sapiens); settings: at 1 µM
Description: GSK_PKIS: FER mean inhibition at 1 uM [Nanosyn]
Threshold rule: inhibition greater than or equal to 8% is y; below that, n.

[
  {
    "input_smiles": "CS(=O)(=O)CCNCc1ccoc1-c1ccc2ncnc(Nc3ccc(OCc4ccccc4)cc3)c2c1",
    "cat": "n"
  },
  {
    "input_smiles": "CNC(=O)c1ncccc1Nc1nc(Nc2cc3c(cc2OC)CCCN3C(=O)CN(C)C)nc2[nH]ccc12",
    "cat": "y"
  },
  {
    "input_smiles": "COc1c(C(N)=O)cc(-c2ccc(Cl)cc2)cc1-c1ccc(S(N)(=O)=O)cc1",
    "cat": "n"
  },
  {
    "input_smiles": "O=C1Nc2ccccc2/C1=C1\\CCc2cc(O)ccc21",
    "cat": "y"
  },
  {
    "input_smiles": "CS(=O)(=O)Nc1ccc(-c2cc(-c3ccccc3)cc(C(N)=O)c2N)cc1",
    "cat": "n"
  }
]

// provenance: ChEMBL document CHEMBL1961873
